Where do the numbers come from? From patent US20250177334A1.

# procedure text: Compound A2 concentration in the CSF of rats
# Format: in vivo
# test parameters: rat, CSF, iv, 1 mg/kg, IV, 0.5 h, mean, read-out: CSF Concentration, Mean
experimental readout: concentration at 0.5 h (ng/mL)
One number for each entry, in ng/mL.

Query: Would you mind telling me what concentration at 0.5 h value was observed for Cc1ccc(C(F)(F)F)cc1NS(=O)(=O)c1cccc(C(=O)O)c1 [Compound A2] ?
Reply: 33

* * *

# procedure text: Compound A2 concentration in the CSF of rats
# Type: in vivo
# test parameters: rat, CSF, iv, 1 mg/kg, IV, 8.0 h, mean, read-out: CSF Concentration, Mean
experimental readout: concentration at 8 h (ng/mL)
Numbers only, in ng/mL.

Query: Which measured concentration at 8 h value corresponds to "Cc1ccc(C(F)(F)F)cc1NS(=O)(=O)c1cccc(C(=O)O)c1" ?
Reply: 1.4
